Test system: T47D
Assay Remarks: Antiproliferative activity against human T47D cells expressing estrogen receptor after 48 hrs by SRB assay
Format: functional
// log10 GI50 lookup, one value per entry
Lab note - GI50 converted to log10 from values in µM.

// below: answered molecules
Molecule	Experimental Target	Reported Metric	Test Value
CO[C@@]12C[C@H]3[C@@H](C[C@H]4O[C@]45CC=CC(=O)[C@]35C)[C@@H]3CC[C@@](O)([C@@H]([C@H]4CC(C)=C(C)C(=O)O4)CO1)[C@]32C [12-O-METHYLJABOROSALACTONE 38]	T47D	log10 GI50	0.59
CC1=C(C)[C@H]([C@H]2O[C@@]3(O)C[C@H]4[C@@H](C[C@@H](O)[C@@]5(Cl)CC=CC(=O)[C@]45C)[C@@H]4CC[C@@](O)([C@@H]2C)[C@]43C)OC1=O [JABOROSALACTONE 42]	T47D	log10 GI50	0.54
CC1=C(C)[C@]2(OC1=O)[C@H](O)[C@@H](C)[C@]1(O)CC[C@H]3[C@@H]4CC=C5CC=CC(=O)[C@]5(C)[C@H]4C[C@@]2(O)[C@@]31C [JABOROSALACTONE P]	T47D	log10 GI50	1.79
O=c1[nH]cc(F)c(=O)[nH]1 [FLUOROURACIL]	T47D	log10 GI50	1.67
CC1=C(C)C(=O)O[C@@H]([C@](C)(O)[C@]2(O)CC[C@@]3(O)[C@@H]4C[C@H]5O[C@]56[C@@H](O)C=CC(=O)[C@]6(C)[C@H]4CC[C@]23C)C1	T47D	log10 GI50	0.34
CC1=C(C)[C@H]([C@H]2O[C@@]3(O)C[C@H]4[C@@H](C[C@H]5O[C@]56CC=CC(=O)[C@]46C)[C@@H]4CC[C@@](O)([C@@H]2C)[C@]43C)OC1=O [TRECHONOLIDE A]	T47D	log10 GI50	0.63

# input for lookup
Item C[C@@H]1[C@@H]([C@@H]2O[C@H](O)[C@@]3(C)O[C@@]23C)O[C@@]2(O)C[C@H]3[C@@H](C[C@H]4O[C@]45CC=CC(=O)[C@]35C)[C@@H]3CC[C@]1(O)[C@]32C [JABOROSALACTOL 24] ; assay system T47D; log10 GI50 reported as 0.81
